# Tested on: U251 glioblastoma cells
# assay.info: MTT cell viability assay, U251
# Assay type: cell-based
# conditions.used: Homo sapiens, U-251, U251, 72 h, mean ± SEM, read-out: IC50 (metabolic activity)
property.name: pIC50
In textbook form, pIC50 equals minus log to base ten of the concentration in mol/L.

Use these answered entries as a reference point.
Nc1nc2ccc3oc(-c4cccc(Oc5ccccc5)c4)cc(=O)c3c2s1 = 5.77
Nc1nc2ccc3oc(-c4ccc(F)cc4)c(O)c(=O)c3c2s1 = 5.72
Nc1nc2ccc3oc(-c4ccc(F)cc4)cc(=O)c3c2s1 = 5.44

Req: Identify pIC50 associated with the molecule "COc1c(-c2ccccc2F)oc2ccc3nc(N)sc3c2c1=O"
Resp: 5.77

---

# target.desc: full-length human Tau (hTau40) (Homo sapiens, UniProt P10636)
# Construct: The full-length human Tau (hTau40) was expressed in a transformed E. coli BL21 (DE3) strain; made in house; host or cells: E. coli BL21 (DE3)
# Sequence (P10636 1-441 isoform P10636-8): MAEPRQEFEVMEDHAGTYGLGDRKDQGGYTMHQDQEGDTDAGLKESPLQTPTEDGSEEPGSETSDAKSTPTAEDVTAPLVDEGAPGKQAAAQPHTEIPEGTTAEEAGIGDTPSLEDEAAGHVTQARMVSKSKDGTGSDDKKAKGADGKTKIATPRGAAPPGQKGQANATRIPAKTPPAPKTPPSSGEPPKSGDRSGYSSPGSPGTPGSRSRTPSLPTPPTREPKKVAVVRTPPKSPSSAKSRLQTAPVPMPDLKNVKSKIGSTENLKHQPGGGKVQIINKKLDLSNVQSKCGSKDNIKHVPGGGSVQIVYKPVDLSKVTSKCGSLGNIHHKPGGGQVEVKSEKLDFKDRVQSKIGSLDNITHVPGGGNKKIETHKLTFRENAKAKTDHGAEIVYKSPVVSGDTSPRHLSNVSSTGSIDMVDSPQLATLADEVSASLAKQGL
# assay.info: Tau oligomerization inhibition assay (heparin-induced, thioflavin S fluorescence)
# Type: biochemical
# conditions.used: 2 µM Tau, heparin-induced, ThS; buffer A pH 6.9; 25 °C per table footnote (37 °C in method); mean ± SD; read-out: Inhibition of Aggregation IC50
property.name: IC50 (µM)
Give the value in µM but do not write µM after it.

Nc1nc2ccc3oc(-c4cccc(F)c4)c(O)c(=O)c3c2s1 [Compound 10] = 9.9

Req: Return reported IC50. Input compound: Nc1nc2ccc3oc(-c4cccc(Oc5ccccc5)c4)cc(=O)c3c2s1 [Compound 2]
Resp: 31.7

Req: Specify IC50 for COc1c(-c2ccccc2F)oc2ccc3nc(N)sc3c2c1=O [Compound 13] and stop.
Resp: 9

Req: Specify measured IC50 for Nc1nc2ccc3oc(-c4ccccc4)c(O)c(=O)c3c2s1 [Compound 12] .
Resp: 12.4

Req: Supply IC50 value. Item: Nc1nc(-c2ccc3oc(-c4ccccc4)cc(=O)c3c2)cs1 [Compound 1]
Resp: 92

Req: Give the measured IC50 for CCOC(=O)c1ccc(-c2cc(=O)c3c(ccc4nc(N)sc43)o2)cc1 [Compound 4]
Resp: 9.7

---

# Test system: U87 shCTRL cells
# assay.info: MTT cell viability assay, U87 shCTRL (expressing Tau)
# Assay type: cell-based, human
# conditions.used: Homo sapiens; U87 shCTRL, 72 h, MTT; mean ± SEM; read-out: IC50 (metabolic activity)
pIC50: −log10 of the molar value.
property.name: pIC50

Solved cases (2 shown):
Nc1nc2ccc3nc(-c4ccc(Oc5ccccc5)cc4)[nH]c(=O)c3c2s1 = < 4.00
Nc1nc2ccc3oc(C(=O)O)cc(=O)c3c2s1 = < 4.00

Req: Return pIC50 for the following compound: "Nc1nc2ccc3oc(-c4cccc(Oc5ccccc5)c4)cc(=O)c3c2s1"
Resp: 5.85

Req: Please indicate pIC50 recorded for "CCOC(=O)c1ccc(-c2cc(=O)c3c(ccc4nc(N)sc43)o2)cc1"
Resp: < 4.00

---

# target.desc: full-length human Tau (hTau40) (Homo sapiens)
# Construct: The full-length human Tau (hTau40) was expressed in a transformed E. coli BL21 (DE3) strain; made in house; host or cells: E. coli BL21 (DE3)
# assay.info: Tau oligomerization inhibition assay (heparin-induced, thioflavin S fluorescence)
# Format: biochemical
property.name: pIC50
Note: pIC50 values are expressed as the negative base-10 logarithm of concentration in M.

Req: Please report pIC50 for the following compound: O=c1c(O)c(-c2ccc(O)c(O)c2)oc2cc(O)cc(O)c12 [QCT, quercetin, reference compound]
Resp: 4.76

---

# target.desc: Tau protein (full-length human Tau, hTau40) (Homo sapiens)
# Construct: The full-length human Tau (hTau40) was expressed in a transformed E. coli BL21 (DE3) strain
# Sequence (P10636 1-441 isoform P10636-8): as above
# assay.info: Tau intrinsic fluorescence quenching, modified Stern–Volmer binding parameters
# conditions.used: 5 µM Tau, buffer B pH 6.8, mean ± SD, read-out: Equilibrium Binding Constants to Tau, KD
Please assign f whenever Kd is at or above 4 µM, and t whenever it is below.

Answered examples (4):
Nc1nc2ccc3oc(C(=O)O)cc(=O)c3c2s1 = f
Nc1nc2ccc3oc(-c4cccc(F)c4)c(O)c(=O)c3c2s1 = f
Nc1nc2ccc3nc(-c4ccc(Oc5ccccc5)cc4)[nH]c(=O)c3c2s1 = t
Nc1nc2ccc3nc(-c4cccc(Oc5ccccc5)c4)[nH]c(=O)c3c2s1 = f

Req: Hi there! Is Kd for "Nc1nc2ccc3oc(-c4ccc(F)cc4)c(O)c(=O)c3c2s1" below 4 µM, do you know?
Resp: f

Req: Threshold test, Kd < 4 µM: "Nc1nc(-c2ccc3oc(-c4ccccc4)cc(=O)c3c2)cs1"
Resp: f

Req: Determine whether this molecule shows Kd lower than 4 µM (ties excluded): "Nc1nc2ccc3oc(-c4ccccc4)c(O)c(=O)c3c2s1"
Resp: f

---

# Test system: GBM cells (U87, U251, U138, and T98G)
# assay.info: MTT assay across the Tau-expressing GBM cell models
# Format: cell-based, human
# conditions.used: Homo sapiens; U87, U251, U138, T98G; 72 h MTT; read-out: IC50 among the Tau-expressing GBM cell models
pIC50: −log10 of the molar value.
property.name: pIC50

Req: For "Nc1nc(-c2ccc3oc(-c4ccccc4)cc(=O)c3c2)cs1" , write its pIC50.
Resp: 4.65 to 5.38

---

In this section we review reported IC50 values for a set of compounds.
# System: T98G glioblastoma cells
# assay.info: MTT cell viability assay, T98G
# Assay type: cell-based
# conditions.used: Homo sapiens, 72 h, mean ± SEM, read-out: IC50 (metabolic activity)
All answers are understood in µM, so give the number only.

Below, each entry is followed by its recorded IC50 result.
COc1c(-c2ccccc2F)oc2ccc3nc(N)sc3c2c1=O = 9.2
Nc1nc2ccc3oc(-c4cccc(Oc5ccccc5)c4)cc(=O)c3c2s1 = 2.8
Nc1nc2ccc3oc(-c4ccccc4)c(O)c(=O)c3c2s1 = 1.7

Req: Consider the compound "Nc1nc2ccc3oc(-c4ccccc4F)cc(=O)c3c2s1" tested on T98G glioblastoma cells; state its IC50.
Resp: 2.9

Req: Provide T98G glioblastoma cells IC50 reading for "COc1c(-c2ccc(F)cc2)oc2ccc3nc(N)sc3c2c1=O" .
Resp: 11.3

Req: Lab note: record IC50 of "COc1c(-c2cccc(F)c2)oc2ccc3nc(N)sc3c2c1=O" tested on T98G glioblastoma cells.
Resp: 2.7

Req: State recorded IC50 with T98G glioblastoma cells, entry "Nc1nc(-c2ccc3oc(-c4ccccc4)cc(=O)c3c2)cs1" , no comment.
Resp: 4.2

Req: For T98G glioblastoma cells, give the measured IC50 of the entry "Nc1nc2ccc3oc(-c4ccc(F)cc4)c(O)c(=O)c3c2s1"
Resp: 3.5

Req: Provide the reported IC50 (system: T98G glioblastoma cells) for "Nc1nc2ccc3oc(-c4cccc(F)c4)c(O)c(=O)c3c2s1"
Resp: 1.5

---

# Tested on: U251 glioblastoma cells
# assay.info: MTT cell viability assay, U251
# Type: cell-based
# conditions.used: Homo sapiens, U-251, U251, 72 h, mean ± SEM, read-out: IC50 (metabolic activity)
The entries below come with measured pIC50 values attached.
A value of pIC50 is the negative decimal logarithm of a concentration given in moles per litre.

Please review the entries below; each comes with its answer.
COc1c(-c2ccc(F)cc2)oc2ccc3nc(N)sc3c2c1=O [Compound 15] = 5.72
Nc1nc(-c2ccc3oc(-c4ccccc4)cc(=O)c3c2)cs1 [Compound 1] = 5.17
COc1c(-c2cccc(F)c2)oc2ccc3nc(N)sc3c2c1=O [Compound 14] = 5.89
Nc1nc2ccc3oc(-c4ccccc4F)cc(=O)c3c2s1 [Compound 6] = 5.89

Turning now to a further record.
Req: Please give measured pIC50 of the following entry: Nc1nc2ccc3oc(-c4cccc(F)c4)c(O)c(=O)c3c2s1 [Compound 10]
Resp: 6.00

---

# target.desc: Tau protein (full-length human Tau, hTau40) (Homo sapiens)
# Construct: The full-length human Tau (hTau40) was expressed in a transformed E. coli BL21 (DE3) strain; made in house; host or cells: E. coli BL21 (DE3)
# assay.info: Tau intrinsic fluorescence quenching, modified Stern–Volmer binding parameters
# conditions.used: 5 µM Tau, buffer B pH 6.8, mean ± SD
property.name: Equilibrium Binding Constants to Tau, fA (Tyr accessible fraction)
Just the number.

COc1c(-c2ccccc2F)oc2ccc3nc(N)sc3c2c1=O = 0.21
Nc1nc2ccc3nc(-c4ccc(Oc5ccccc5)cc4)[nH]c(=O)c3c2s1 = 0.14
Nc1nc2ccc3oc(-c4ccccc4)c(O)c(=O)c3c2s1 = 0.19
Nc1nc2ccc3oc(C(=O)O)cc(=O)c3c2s1 = 0.38
Nc1nc2ccc3oc(-c4cccc(F)c4)cc(=O)c3c2s1 = 0.21
Nc1nc(-c2ccc3oc(-c4ccccc4)cc(=O)c3c2)cs1 = 0.39
Nc1nc2ccc3nc(-c4cccc(Oc5ccccc5)c4)[nH]c(=O)c3c2s1 = 0.20
Nc1nc2ccc3oc(-c4ccc(F)cc4)c(O)c(=O)c3c2s1 = 0.16

Req: Please indicate recorded Equilibrium Binding Constants to Tau, fA (Tyr accessible fraction) of O=c1c(O)c(-c2ccc(O)c(O)c2)oc2cc(O)cc(O)c12 [QCT, quercetin, reference compound] measured with Tau protein (full-length human Tau, hTau40) (Homo sapiens).
Resp: 0.12

Req: Write down the reported Equilibrium Binding Constants to Tau, fA (Tyr accessible fraction) (system: Tau protein (full-length human Tau, hTau40) (Homo sapiens)) of "Nc1nc2ccc3oc(-c4cccc(Oc5ccccc5)c4)cc(=O)c3c2s1"
Resp: 0.14

Req: Provide measured Equilibrium Binding Constants to Tau, fA (Tyr accessible fraction) on Tau protein (full-length human Tau, hTau40) (Homo sapiens) for "CCOC(=O)c1ccc(-c2cc(=O)c3c(ccc4nc(N)sc43)o2)cc1" please.
Resp: 0.12

Req: Identify measured Equilibrium Binding Constants to Tau, fA (Tyr accessible fraction) obtained with Tau protein (full-length human Tau, hTau40) (Homo sapiens) for "COc1c(-c2ccc(F)cc2)oc2ccc3nc(N)sc3c2c1=O" .
Resp: 0.23

Req: Tell me its Equilibrium Binding Constants to Tau, fA (Tyr accessible fraction) on Tau protein (full-length human Tau, hTau40) (Homo sapiens): "COc1c(-c2cccc(F)c2)oc2ccc3nc(N)sc3c2c1=O"
Resp: 0.21
